Data origin, for the record: the supplement of paper PMC11616607

In this section, each of the compounds is paired with its reported drug sensitivity score.
# System: HOSE2C
# assay summary: drug sensitivity score (DSS) from 5-point dose-response viability curve (DSS (area-under-curve based score)); higher = more sensitive (stronger growth inhibition or killing); extreme values may be limits of the assay
# applied conditions: exposure time: 72 h; concentration range: 5 concentrations over 10,000-fold range
metric: drug sensitivity score

[[record]]
compound = "N#CCNC(=O)c1ccc(-c2ccnc(Nc3ccc(N4CCOCC4)cc3)n2)cc1 [Momelotinib]"
metric = "drug sensitivity score"
result = 5.8

[[record]]
compound = "Nc1cc(F)ccc1NC(=O)/C=C/c1cnn(C/C=C/c2ccccc2)c1 [RGFP966]"
metric = "drug sensitivity score"
result = 2.4

[[record]]
compound = "Nc1cccc2c1C(=O)N(C1CCC(=O)NC1=O)C2=O (stereo not given) [Pomalidomide]"
metric = "drug sensitivity score"
result = 0

[[record]]
compound = "COC(=O)C[C@](O)(CCCC(C)(C)O)C(=O)O[C@@H]1C(OC)=C[C@]23CCCN2CCc2cc4c(cc2[C@H]13)OCO4 [Omacetaxine]"
metric = "drug sensitivity score"
result = 18.6

[[record]]
compound = "CNc1nc(-c2ccc3c(N)n[nH]c3c2)cc(N2C[C@@H](C(=O)NC3CCCCC3)CC[C@H]2C)n1"
metric = "drug sensitivity score"
result = 2.6

[[record]]
compound = "O=C(/C=C\\n1cnc(-c2cc(C(F)(F)F)cc(C(F)(F)F)c2)n1)NNc1cnccn1 [Selinexor]"
metric = "drug sensitivity score"
result = 9.3

[[record]]
compound = "CCN(CC)CCN(Cc1ccc(-c2ccc(C(F)(F)F)cc2)cc1)C(=O)Cn1c(SCc2ccc(F)cc2)nc(=O)c2c1CCC2 [Darapladib]"
metric = "drug sensitivity score"
result = 0

[[record]]
compound = "CCCCOc1nc(N)c2c(n1)N(Cc1cccc(CN3CCCC3)c1)CC(=O)N2 [Vesatolimod]"
metric = "drug sensitivity score"
result = 0

[[record]]
compound = "O=C(c1cccc(Cl)c1F)N1CCN(Cc2cccc(Nc3nccs3)n2)CC1 [MK-8745]"
metric = "drug sensitivity score"
result = 3.5

[[record]]
compound = "CC[C@H](C)C(=O)O[C@H]1C[C@H](O)C=C2C=C[C@H](C)[C@H](CC[C@@H](O)C[C@@H](O)CC(=O)O)[C@H]21 [Pravastatin]"
metric = "drug sensitivity score"
result = 0

[[record]]
compound = "COc1cc(Nc2ncc(F)c(Nc3ccc4c(n3)N(COP(=O)(O)O)C(=O)C(C)(C)O4)n2)cc(OC)c1OC [Fostamatinib]"
metric = "drug sensitivity score"
result = 8.4

[[record]]
compound = "C[C@]12C=CC(=O)C=C1CC[C@@H]1[C@@H]2[C@@H](O)C[C@@]2(C)[C@H]1CC[C@]2(O)C(=O)CO [Prednisolone]"
metric = "drug sensitivity score"
result = 3.3

[[record]]
compound = "C[C@@H]1C=C2C(=O)O[C@@H]3CC[C@H](C1)[C@]23O [Galiellalactone]"
metric = "drug sensitivity score"
result = 7.3

[[record]]
compound = "Cn1nccc1Nc1nccc(-c2ccn([C@H](CO)c3ccc(Cl)c(F)c3)c(=O)c2)n1 [Ravoxertinib]"
metric = "drug sensitivity score"
result = 0

[[record]]
compound = "COc1cccc2c1C(=O)c1c(O)c3c(c(O)c1C2=O)C[C@@](O)(/C(CO)=N/NC(=O)CCCCCN1C(=O)C=CC1=O)C[C@@H]3O[C@H]1C[C@H](N)[C@H](O)[C@H](C)O1 [Aldoxorubicin]"
metric = "drug sensitivity score"
result = 7.4

